System: Leishmania donovani
Experiment: Antileishmanial activity against Leishmania donovani MHOM/IN/80/DD8 amastigotes infected in human THP1 cells assessed as decrease of infected macrophages after 72 hrs by Giemsa staining
Format: functional, organism-based
Conditions: MHOM/IN/80/DD8, THP-1, 72 h
Note to self: IC50 under 5 µM means 1, ties and anything higher get -1.

chemical structure	category
COc1ccc(-c2cc(=O)oc3ccccc23)cc1OC	-1
COc1ccc2c(-c3ccc(OC)c(OC)c3)cc(=O)oc2c1	-1
COc1ccc(-c2cc(=O)oc3cc(OC)c(OC)c(OC)c23)cc1OC	1
COc1ccc(-c2cc(=O)oc3cc(OC)c(OC)cc23)cc1OC	1
C[C@@H]1[C@H](O)[C@@H](C)/C=C/C=C/C=C/C=C/C=C/C=C/C=C/[C@H](O[C@@H]2O[C@H](C)[C@@H](O)[C@H](N)[C@@H]2O)C[C@@H]2O[C@](O)(C[C@@H](O)C[C@@H](O)[C@H](O)CC[C@@H](O)C[C@@H](O)CC(=O)O[C@H]1C)C[C@H](O)[C@H]2C(=O)O	1
COc1cc2oc(=O)cc(-c3ccc(O)cc3)c2cc1OC	-1
COc1ccc2oc(=O)cc(-c3ccc(OC)c(OC)c3)c2c1	-1
COc1cc(-c2cc(=O)oc3cc(OC)c(OC)cc23)ccc1O	-1
